Conditions: both, human, plasma, oral, t1/2, pravastatin 40 mg (cocktail) + filgotinib 200 mg once daily; n = 26; mean (standard deviation)
Readout Type: half-life (h)
The figure you give is taken to be in h; do not add the unit.

Q: Return the recorded half-life value; entry: CC[C@H](C)C(=O)O[C@H]1C[C@H](O)C=C2C=C[C@H](C)[C@H](CC[C@@H](O)C[C@@H](O)CC(=O)O)[C@H]21 [Pravastatin]
Ans: 6.57

----------
Details: both, human, plasma, oral, 10 mg
Readout Type: Cmax (ng/mL)
The figure you give is taken to be in ng/mL; do not add the unit.

Q: Return the recorded Cmax value; entry: CC(C)c1nc(N(C)S(C)(=O)=O)nc(-c2ccc(F)cc2)c1/C=C/[C@@H](O)C[C@@H](O)CC(=O)O
Ans: 7.5

----------
Conditions: both, human, plasma, oral, t1/2, rosuvastatin 10 mg (cocktail) + filgotinib 200 mg once daily; n = 26; median (Q1-Q3)
Readout Type: half-life (h)
The figure you give is taken to be in h; do not add the unit.

Q: Return the recorded half-life value; entry: CC(C)c1nc(N(C)S(C)(=O)=O)nc(-c2ccc(F)cc2)c1/C=C/[C@@H](O)C[C@@H](O)CC(=O)O [Rosuvastatin]
Ans: 15.4

----------
Details: both, human, plasma, oral, t1/2, pravastatin 40 mg (cocktail) + filgotinib 200 mg once daily; n = 26; median (Q1-Q3)
Readout Type: half-life (h)
The figure you give is taken to be in h; do not add the unit.

Q: Return the recorded half-life value; entry: CC[C@H](C)C(=O)O[C@H]1C[C@H](O)C=C2C=C[C@H](C)[C@H](CC[C@@H](O)C[C@@H](O)CC(=O)O)[C@H]21
Ans: 5.6

----------
Conditions: both, human, plasma, oral, 40 mg
Readout Type: AUC(0-inf)
Please state the number and follow it with the unit.

Q: Return the recorded AUC(0-inf) value; entry: CC[C@H](C)C(=O)O[C@H]1C[C@H](O)C=C2C=C[C@H](C)[C@H](CC[C@@H](O)C[C@@H](O)CC(=O)O)[C@H]21 [Pravastatin]
Ans: 201 ng·h/mL

----------
Settings: both, human, plasma, oral, 40 mg
Readout Type: tmax (h)
The figure you give is taken to be in h; do not add the unit.

Q: Return the recorded tmax value; entry: CC[C@H](C)C(=O)O[C@H]1C[C@H](O)C=C2C=C[C@H](C)[C@H](CC[C@@H](O)C[C@@H](O)CC(=O)O)[C@H]21
Ans: 1

Hey, just so you know, these numbers are from paper PMC9293227.
